# Study target: T1, PTH/PTHrP receptor (P1R), wild-type, full-length (human, UniProt Q03431 27-593)
# T1 sequence (looked up): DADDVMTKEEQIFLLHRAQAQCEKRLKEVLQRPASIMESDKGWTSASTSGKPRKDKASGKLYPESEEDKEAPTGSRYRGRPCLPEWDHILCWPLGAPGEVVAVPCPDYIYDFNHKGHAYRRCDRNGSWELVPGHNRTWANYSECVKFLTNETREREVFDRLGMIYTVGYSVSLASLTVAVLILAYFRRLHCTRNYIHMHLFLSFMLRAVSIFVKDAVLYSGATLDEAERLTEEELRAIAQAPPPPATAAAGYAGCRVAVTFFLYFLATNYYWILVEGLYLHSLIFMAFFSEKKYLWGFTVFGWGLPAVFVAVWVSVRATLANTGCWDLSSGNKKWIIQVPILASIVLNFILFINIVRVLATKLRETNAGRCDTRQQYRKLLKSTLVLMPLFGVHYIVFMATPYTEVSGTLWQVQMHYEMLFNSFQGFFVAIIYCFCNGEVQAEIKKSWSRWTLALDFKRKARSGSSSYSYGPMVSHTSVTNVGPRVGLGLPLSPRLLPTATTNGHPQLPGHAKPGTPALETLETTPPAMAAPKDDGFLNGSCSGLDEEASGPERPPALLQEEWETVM
# Assay procedure: cell-based or functional assay
No end group written: not given here.
The entries below are paired with their reported cAMP Emax (%).
Report as a plain number; the unit % is understood.

Worked examples follow.
{"columns": ["Binder", "cAMP Emax (%)"],
 "data": [
  ["SVSEIQLMHALGKHLNSMERVEWLRKKLQDVHNY-NH2 [[Ala^10]PTH(1-34)]", 96],
  ["SVSEIALMHALGKHLNSMERVEWLRKKLQDVHNY-NH2 (Double Ala analog of [Tyr^34]hPTH(1-34)amide) [[Ala^6,10]PTH(1-34)]", 121],
  ["SVSEIQLMHNLGKHLNSMERVEWLRKKLQDVHNY-NH2 (Human PTH(1-34) analog with Tyr at 34; also called [Tyr^34]hPTH(1-34)NH2; PTH(1-34) scaffold peptide) [PTH(1-34) ([Tyr^34]hPTH(1-34)amide)]", 100]
]}

Consider the record given below.
Bench note: what cAMP Emax (%) did SVSEIALMHNLGKHLNSMERVEWLRKKLQDVHNY-NH2 (Gln6->Ala analog of [Tyr^34]hPTH(1-34)amide) [[Ala^6]PTH(1-34)] show?
104
